Sourced from PubChem BioAssay (NCATS)

Can you tell me Potency for the items I'm about to list?
experiment: Cell Viability - Hek293 (AID 427); conditions: qHTS;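 note: potency is the fitted concentration of half-maximal effect; cells exposed to compound for 40 hours at 37 °C before reading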
Records with an inconclusive call do not appear. Active and inactive are the calls of the source.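 Rule for the calls: active = compounds whose dose-response curve shows a full or clear partial loss of cell viability, called from curve shape rather than a numeric limit; inconclusive = weak partial curves or an effect only at the top dose; inactive = no dose-dependent loss of viability.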

{"Molecule": "Cc1ccc(S(N)(=O)=O)cc1", "Recorded Value": "> 92 µM (inactive)"}
{"Molecule": "O=c1[nH]ncc2ccccc12", "Recorded Value": "> 92 µM (inactive)"}
{"Molecule": "Brc1cc(Br)c(Oc2cc(Br)c(Br)cc2Br)cc1Br", "Recorded Value": "> 92 µM (inactive)"}
{"Molecule": "CCC(Cl)CC(Cl)C(Cl)C(Cl)C(Cl)C(C)Cl (configuration not stated)", "Recorded Value": "> 92 µM (inactive)"}

// batch mode: one Potency value per listed entry
1. CC(C)COC(=O)COc1cc(Cl)c(Cl)cc1Cl
2. O=[N+]([O-])c1ccccc1Nc1ccccc1
3. C=Cc1cccc(C)c1
4. CC(=O)CC(=O)Nc1ccccc1
5. CCOc1ccc2nc(N)sc2c1
6. O=C(OCc1ccccc1)c1ccccc1O

1. > 92 µM (inactive)
2. > 92 µM (inactive)
3. > 92 µM (inactive)
4. > 92 µM (inactive)
5. > 92 µM (inactive)
6. > 92 µM (inactive)

====

test: Cell Viability - LYMP2-006 (AID 978); details: LYMP2-006 lymphoblastoid cell viability, qHTS; series mostly up to 92.2 µM;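 note: cells exposed to compound for 24 hours; nearly all actives have a fitted effect of over 60% in size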
Records with an inconclusive call do not appear. Activity calls are given as the source filed them. The call rests on the fitted dose curve; in most records, active means well fitted cell-killing curve with a large enough effect; inconclusive means small, poorly fitted or top-dose-only effect; inactive means flat fitted curve, though single readings scatter.
// classify into Y (active), N (inactive)

{"Molecule": "Cc1ccc(S(N)(=O)=O)cc1", "Assigned Label": "N"}
{"Molecule": "O=C(O)/C=C/c1ccc(/C=C/C(=O)O)cc1", "Assigned Label": "N"}
{"Molecule": "CCCC(=O)OC(=O)CCC", "Assigned Label": "N"}
{"Molecule": "COc1ccc(C)cc1N", "Assigned Label": "N"}
{"Molecule": "Cc1cc2nc(N)sc2cc1C", "Assigned Label": "N"}

Dear all, I need the recorded test outcome for OCC(CO)(CBr)CBr , thank you.
N

Dear all, I need the recorded test outcome for CCCCCCCCOc1ccc(C(=O)O)cc1 , thank you.
N

Dear all, I need the recorded test outcome for COc1ccc([N+](=O)[O-])cc1N , thank you.
N

Dear all, I need the recorded test outcome for O=C(O)c1cc(N=Nc2ccc([N+](=O)[O-])cc2)ccc1O , thank you.
N

Dear all, I need the recorded test outcome for O=C(O)c1ccc([N+](=O)[O-])cc1 , thank you.
N

Dear all, I need the recorded test outcome for Cc1c2ccccc2c(C)c2c1ccc1ccccc12 , thank you.
N

Dear all, I need the recorded test outcome for Nc1ccccc1O , thank you.
N

Dear all, I need the recorded test outcome for CC1=C(/C=C/C(C)=C/C=C/C(C)=C/C=O)C(C)(C)CCC1 , thank you.
Y

Dear all, I need the recorded test outcome for CC(C)S , thank you.
N

Dear all, I need the recorded test outcome for Oc1cc2c(cc1O)[C@H]1c3ccc(O)c(O)c3OC[C@@]1(O)C2 , thank you.
Y

Dear all, I need the recorded test outcome for CCCCC(CC)COP(=O)(OCC(CC)CCCC)OCC(CC)CCCC (stereo not given) , thank you.
N

Dear all, I need the recorded test outcome for c1c[nH]cn1 , thank you.
N

Dear all, I need the recorded test outcome for c1ccc2c(c1)ccc1ccccc12 , thank you.
N

Dear all, I need the recorded test outcome for Oc1ccc2c(c1)OCO2 , thank you.
N

Dear all, I need the recorded test outcome for Cc1ccccc1OCC1CO1 (stereo not given) , thank you.
N

Dear all, I need the recorded test outcome for O=C1OC(=O)c2ccccc21 , thank you.
N

Dear all, I need the recorded test outcome for C/C=C/C=C/C=O , thank you.
Y

Dear all, I need the recorded test outcome for c1ccc(Nc2cccc3ccccc23)cc1 , thank you.
N

Dear all, I need the recorded test outcome for C/C(Cl)=C/CCl , thank you.
N

Dear all, I need the recorded test outcome for CC(=O)OC1CC(C)OC(C)O1 (stereo not given) , thank you.
N

Dear all, I need the recorded test outcome for c1ccc(SCCSc2ccccc2)cc1 , thank you.
N

====

test: Cell Viability - HUV-EC-C (AID 542); details: HUV-EC-C endothelial cell viability, qHTS; series mostly up to 92.2 µM;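 note: cells exposed to compound for 40 hours; % is set by controls: 0 for no effect and ±100 for the full control effect; nearly all actives have a fitted effect of over 35% in size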
Inconclusive results are not listed. Calls of active or inactive are those of the source. Calls come from the whole dose curve; as a rule, active = well fitted cell-killing curve with a large enough effect; inconclusive = small, poorly fitted or top-dose-only effect, or effect the other way; inactive = flat fitted curve, though single readings scatter.
Property Name: outcome

The following compounds have reported results that may help.
{"Compound": "CC(C)OCC1CO1 (stereo not given)", "outcome": "inactive"}
{"Compound": "CCCCCCCCC1CO1 (stereo not given)", "outcome": "inactive"}
{"Compound": "c1ccc(COCc2ccccc2)cc1", "outcome": "inactive"}
{"Compound": "CCN(CC)c1ccc(N)cc1", "outcome": "inactive"}

Here is the next item to consider.
Just so you know, measured outcome for c1cc2c3c(c1)ccc1cccc(c13)C2 came out at inactive

====

Can you tell me activity, negative = inhibition for the items I'm about to list?
test: Stat Signaling Pathway (AID 446); settings: ME-180 SIE beta-lactamase reporter, IL-6 stimulated, 5 h; at 7.69 µM (top of the series) unless noted;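 note: ME-180 cervical cancer cells given 40 pM IL-6 alongside compound; SIE-controlled beta-lactamase reporter measured as 460/530 nm FRET emission ratio; % is set by controls: 0 for no effect and ±100 for the full control effect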
Records with an inconclusive call do not appear.
Answers are plain numbers, in %.

{"Compound": "CC(C)C(=O)C(C)(C)CCc1ccccn1", "activity, negative = inhibition / %": 1.04}
{"Compound": "CN(Cc1cc(Br)cc(Br)c1O)Cc1c(O)ccc2ccccc12", "activity, negative = inhibition / %": -8.41}

// batch mode: one activity, negative = inhibition value per listed entry
1. CC(C)c1ccc(O)c(O)c(=O)c1 (tested in a mixture with another compound)
2. [N-]=[N+]=N[C@@H]1[C@H](O)[C@H](CO)O[C@@H]1n1cnc2c(N)ncnc21

1: 4.84; 2: -12.3

====

test: AP1 Signaling Pathway (AID 357); details: ME-180 AP-1-bla reporter, EGF-induced, beta-lactamase ratio, 5 h; at 7.69 µM (top of the series) unless noted;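 note: ME-180 reporter cells stimulated with EGF at its EC50 level; % is set by controls: 0 for no effect and ±100 for the full control effect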
Inconclusive results are not listed. The source made the active and inactive calls. Calls come from the whole dose curve; as a rule, active = well fitted curve in either direction with a large enough effect (not every such curve was filed as active); inconclusive = small, poorly fitted or top-dose-only effect, or another doubt; inactive = flat fitted curve, though single readings scatter. Residues, ends and D or L forms follow the SMILES beside them.
Property Name: activity change, negative = inhibition

// batch mode: one activity change, negative = inhibition value per listed entry
1. COc1cc(N=C(N)N=C(N)N)c2ncccc2c1
2. NNC(=O)Cc1cccnc1
3. O=C(O)NCC1CCCCC1 (tested in a mixture with another compound)
4. CCCS(=O)(=O)O
5. CN(C)Cc1cc(C(C)(C)C)cc(CN(C)C)c1O

1: -8.09% (inactive); 2: -8.16% (inactive); 3: 23.3% (inactive); 4: -5.23% (inactive); 5: 12.4% (inactive)

// batch mode: one activity change, negative = inhibition value per listed entry
1. CN(C)CCSCCO
2. COc1ccc(/C=C(\C#N)C(N)=O)c(OC)c1
3. COCCn1c(=O)c(-c2cc(F)cc(F)c2)nc2cnc(Oc3ccccc3)nc21
4. NCC(=O)NC1(C(=O)O)CCCC1 (HELM PEPTIDE1{G.[O=C(O)C1(N[*:1])CCCC1]}$$$$V2.0)

7.7% (inactive)
2.38% (inactive)
0.911% (inactive)
4.89% (inactive)

====

Can you tell me activity change, negative = inhibition for the items I'm about to list?
assay: AP1 Signaling Pathway (AID 357); details: ME-180 (cervical carcinoma) AP-1-bla reporter, EGF-induced, beta-lactamase ratio, 5 h; at 7.69 µM (top of the series) unless noted;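 note: ME-180 reporter cells stimulated with EGF at its EC50 level; % is set by controls: 0 for no effect and ±100 for the full control effect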
Records with an inconclusive call do not appear. Active and inactive are the calls of the source. Calls come from the whole dose curve; as a rule, active = well fitted curve in either direction with a large enough effect (not every such curve was filed as active); inconclusive = small, poorly fitted or top-dose-only effect, or another doubt; inactive = flat fitted curve, though single readings scatter.

{"Test Smiles": "COCCn1c(=O)c(-c2cccs2)nc2cnc(Oc3ccc(OC)cc3)nc21", "activity change, negative = inhibition": "-1.43% (inactive)"}
{"Test Smiles": "Cc1cc(Cl)ccc1OCC(=O)Nc1nc(N)nc(N)n1", "activity change, negative = inhibition": "7.35% (inactive)"}
{"Test Smiles": "O=C(O)CC[C@@H](C(=O)O)N1C(=O)[C@@H]2[C@@H]3CC[C@H](C3)[C@@H]2C1=O", "activity change, negative = inhibition": "11.4% (inactive)"}
{"Test Smiles": "COc1ccc(CNc2ncnc3ccc(-c4ccccc4C#N)cc23)c(OC)c1", "activity change, negative = inhibition": "13.2% (inactive)"}
{"Test Smiles": "COc1c2c(nc3ccccc13)O[C@@H]([C@@](C)(O)CO)C2", "activity change, negative = inhibition": "-14.5% [at 38 µM] (inactive)"}

// batch mode: one activity change, negative = inhibition value per listed entry
1. Nc1nc(-c2cccc([N+](=O)[O-])c2)cc(-c2cc(-c3cccc([N+](=O)[O-])c3)nc(N)n2)n1
2. O=C(Nc1ccc2ncccc2c1)Nc1ccc2ncccc2c1
3. Cn1c(=O)c2[nH]c(CCC(=O)O)nc2n(C)c1=O
4. COc1cc([C@H](O)CO)ccc1O
5. NC(N)=N[C@H](CC(=O)O)c1ccccc1
6. O=C(O)C(=O)/C=C(\O)c1ccc(Br)cc1

-0.341% (inactive)
-16.2% (inactive)
0.0396% (inactive)
-0.627% [at 38 µM] (inactive)
5.91% (inactive)
-0.263% (inactive)
